Structures can show the parent of a compound that is named as a salt.
Consider the following log10 IC50 values measured on human VAP-1 enzyme (SSAO) (Homo sapiens (Human), UniProt Q16853).
Sequence (Q16853 whole entry): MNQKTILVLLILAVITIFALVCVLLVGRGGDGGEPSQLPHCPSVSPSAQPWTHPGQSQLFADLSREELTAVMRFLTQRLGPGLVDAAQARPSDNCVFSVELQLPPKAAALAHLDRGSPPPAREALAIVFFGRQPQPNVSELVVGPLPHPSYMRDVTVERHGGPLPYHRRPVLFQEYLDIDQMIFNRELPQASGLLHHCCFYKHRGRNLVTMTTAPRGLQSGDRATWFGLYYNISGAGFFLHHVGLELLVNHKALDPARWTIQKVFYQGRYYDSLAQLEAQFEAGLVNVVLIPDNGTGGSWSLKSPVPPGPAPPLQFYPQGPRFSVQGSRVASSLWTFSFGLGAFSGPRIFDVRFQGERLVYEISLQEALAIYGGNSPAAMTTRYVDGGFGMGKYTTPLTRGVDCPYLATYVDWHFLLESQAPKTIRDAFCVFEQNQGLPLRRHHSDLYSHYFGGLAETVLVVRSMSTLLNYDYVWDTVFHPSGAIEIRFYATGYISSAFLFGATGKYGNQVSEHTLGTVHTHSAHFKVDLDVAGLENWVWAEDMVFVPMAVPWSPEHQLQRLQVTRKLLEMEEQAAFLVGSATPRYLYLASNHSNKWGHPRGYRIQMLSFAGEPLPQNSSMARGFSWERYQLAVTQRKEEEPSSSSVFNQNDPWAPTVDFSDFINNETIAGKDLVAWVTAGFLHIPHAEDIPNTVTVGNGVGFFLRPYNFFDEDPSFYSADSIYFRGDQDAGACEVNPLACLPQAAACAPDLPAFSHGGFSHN
Heads up: the numbers are on a log10 scale; they represent IC50 in nM.

Reported log10 IC50 ( CC(=O)N1CCN(c2ccc(CCc3cccc(COC(=O)NN)c3)nc2)CC1 [Production Example 111, trihydrochloride] ) = -0.30

get_value(item= CCCN(CCC)c1ccc(CCc2ccc(CC(=O)NN)cc2)cn1 [Production Example 92, trihydrochloride] , readout=log10 IC50) returns 1.31

For reference, reported log10 IC50 for CCN(CC)c1ccc(CCc2ccc(CC(=O)NN)cc2)cc1 [Production Example 30, dihydrochloride] stands at 1.11

response.value for "NNC(=O)Cc1ccc(CCc2cncc(N3CCNCC3)c2)cc1" (field: log10 IC50) = 1.29

Entry NNC(=O)Cc1ccc(CCc2csc(N3CCNCC3)n2)cc1 [Production Example 95, dihydrochloride] , log10 IC50 reported as 0.80

Field log10 IC50 (entry CC(=O)N1CCN(c2ccc(CCc3ccc(COC(=O)NN)cc3F)nc2)CC1 [Production Example 113, trihydrochloride] ) reads -0.05

Entry CCN(C)c1ccc(CCc2ccc(CC(=O)NN)cc2)cn1 [Production Example 89, trihydrochloride] — recorded log10 IC50 = 1.19

---

Give pIC50 for every item shown.
biological target: rat VAP-1 enzyme (SSAO) (Rattus norvegicus (Rat))
Sequence (O08590 whole entry): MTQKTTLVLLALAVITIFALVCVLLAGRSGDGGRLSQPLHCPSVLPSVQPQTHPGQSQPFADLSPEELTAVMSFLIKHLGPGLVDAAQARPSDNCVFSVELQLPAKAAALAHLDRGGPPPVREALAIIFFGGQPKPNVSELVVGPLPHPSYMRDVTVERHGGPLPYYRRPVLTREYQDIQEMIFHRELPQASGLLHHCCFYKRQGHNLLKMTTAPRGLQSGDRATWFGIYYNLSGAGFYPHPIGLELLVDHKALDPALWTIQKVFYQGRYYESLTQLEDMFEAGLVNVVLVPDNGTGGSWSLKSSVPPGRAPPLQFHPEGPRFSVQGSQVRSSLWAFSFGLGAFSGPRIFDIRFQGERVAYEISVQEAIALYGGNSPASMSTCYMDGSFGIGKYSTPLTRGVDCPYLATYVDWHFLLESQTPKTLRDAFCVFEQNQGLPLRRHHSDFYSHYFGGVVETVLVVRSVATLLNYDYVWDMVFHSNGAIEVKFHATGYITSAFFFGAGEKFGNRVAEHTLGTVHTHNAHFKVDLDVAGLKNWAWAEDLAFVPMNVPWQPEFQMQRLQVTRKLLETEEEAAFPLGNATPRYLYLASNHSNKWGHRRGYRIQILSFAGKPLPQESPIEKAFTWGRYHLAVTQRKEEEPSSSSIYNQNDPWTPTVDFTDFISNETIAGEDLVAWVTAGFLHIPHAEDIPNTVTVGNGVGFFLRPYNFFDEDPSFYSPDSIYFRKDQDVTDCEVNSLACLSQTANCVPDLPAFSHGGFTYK
Where a name gives a salt, the structure may show the parent alone.
In textbook form, pIC50 equals minus log to base ten of the concentration in mol/L.

Item: CC(=O)N1CCN(c2ccc(CCc3ccc(CC(=O)NN)cc3)nc2)CC1 [Production Example 87, trihydrochloride] | pIC50: 8.85

NNC(=O)Cc1ccc(CCc2ccc(N3CCNCC3)cc2C(F)(F)F)cc1 [Production Example 59, trihydrochloride] yielded pIC50 of 8.21

Record summary for CCCN(CCC)c1ccc(CCc2ccc(CC(=O)NN)cc2)cn1 [Production Example 92, trihydrochloride] : reported pIC50 = 9.10

Given item CCN(CCN)c1ccc(CCc2ccc(CC(=O)NN)cc2)cc1 [Production Example 83, trihydrochloride] , the value recorded as its pIC50 is 8.24

Please fill in: pIC50 reported for CC(=O)N1CCN(c2ccc(CCc3cccc(COC(=O)NN)c3)nc2)CC1 [Production Example 111, trihydrochloride] = 9.40

For reference, reported pIC50 for NNC(=O)Cc1ccc(CCc2ccc(N3CCCC3)nc2)cc1 [Production Example 44, trihydrochloride] stands at 8.27

Lab note: NNC(=O)Cc1ccc(CCc2ccc(CN3CCOCC3)cc2)cc1 [Production Example 70, dihydrochloride] gave pIC50 of 8.89

---

Counter-ions that a name gives are not always drawn.
Can you tell me pIC50 for the items I'm about to list?
Just so you know, pIC50 here is -log10 of the concentration in molar units; reply with that number alone.

Reading of pIC50 for NNC(=O)Cc1ccc(CCc2ccnc(N3CCNCC3)c2)cc1 [Production Example 105] with rat VAP-1 enzyme (SSAO) (Rattus norvegicus (Rat)): 8.14

The value of pIC50 recorded for CC(=O)N1CCN(c2ccc(CCc3ccc(CCOC(=O)NN)cc3)nc2)CC1 [Production Example 122, trihydrochloride] when tested on rat VAP-1 enzyme (SSAO) (Rattus norvegicus (Rat)) reads 8.10

Here NNC(=O)Cc1ccc(CCc2ccc(N3CCOCC3)nc2)cc1 [Production Example 12, dihydrochloride] was tested on rat VAP-1 enzyme (SSAO) (Rattus norvegicus (Rat)), and its pIC50 came to 8.96

GET /values?item= CC(=O)N1CCN(c2ccc(CCc3cccc(CNC(=O)NN)c3)nc2)CC1 [Production Example 112, trihydrochloride] &system= rat VAP-1 enzyme (SSAO) (Rattus norvegicus (Rat)) returns pIC50: 9.15

Entry CCN(C)c1ccc(CCc2ccc(CC(=O)NN)cc2)cn1 [Production Example 89, trihydrochloride] , tested on rat VAP-1 enzyme (SSAO) (Rattus norvegicus (Rat)), has a reported pIC50 of 9.05

rat VAP-1 enzyme (SSAO) (Rattus norvegicus (Rat)) pIC50 of CC(=O)N1CCN(c2ccc(CCc3ccc(COC(=O)NN)cc3F)nc2)CC1 [Production Example 113, trihydrochloride] is 9.15

All values here come from patent US9603833B2.
